Exercise: for every item that follows, state its recorded TGI.
# System: UACC-62 melanoma
# ASSAY PROCEDURE: NCI tumour cell line growth inhibition, 48 h

Look over these answered cases.
[[record]]
compound = "NC(=O)C(=CNC(=S)c1ccncc1)C(N)=O"
measured_on = "UACC-62 melanoma"
reported_result = "> 100 µM"

[[record]]
compound = "CCOC(=O)C1=C(OC(OCC)C(CC)[Se]c2ccccc2)CCCC1 (stereo unspecified)"
measured_on = "UACC-62 melanoma"
reported_result = "62.9 µM"

[[record]]
compound = "CC1CC(=O)Nc2nc3ccccc3n21 (stereo unspecified)"
measured_on = "UACC-62 melanoma"
reported_result = "> 100 µM"

[[record]]
compound = "CC[C@@]1(O)C(=O)OCc2c1cc1n(c2=O)Cc2c-1nc1cc3c(cc1c2CCl)OCO3"
measured_on = "UACC-62 melanoma"
reported_result = "0.205 µM"

[[record]]
compound = "COc1ccc(/C=C/CN(C)CCc2ccccc2)cc1OC"
measured_on = "UACC-62 melanoma"
reported_result = "> 100 µM"


Note: attention shifts to another entry.
// fetch UACC-62 melanoma TGI for O=C(CSc1n[nH]c(=O)[nH]c1=O)NNC(=O)c1cccc2nc3ccccc3nc12
> 100 µM
